Origin of measurements: PubChem BioAssay (NCATS)

# testTarget: Cytochrome P450 1A2 (Homo sapiens) (UniProt P05177)
# Sequence (P05177 whole entry, looked up): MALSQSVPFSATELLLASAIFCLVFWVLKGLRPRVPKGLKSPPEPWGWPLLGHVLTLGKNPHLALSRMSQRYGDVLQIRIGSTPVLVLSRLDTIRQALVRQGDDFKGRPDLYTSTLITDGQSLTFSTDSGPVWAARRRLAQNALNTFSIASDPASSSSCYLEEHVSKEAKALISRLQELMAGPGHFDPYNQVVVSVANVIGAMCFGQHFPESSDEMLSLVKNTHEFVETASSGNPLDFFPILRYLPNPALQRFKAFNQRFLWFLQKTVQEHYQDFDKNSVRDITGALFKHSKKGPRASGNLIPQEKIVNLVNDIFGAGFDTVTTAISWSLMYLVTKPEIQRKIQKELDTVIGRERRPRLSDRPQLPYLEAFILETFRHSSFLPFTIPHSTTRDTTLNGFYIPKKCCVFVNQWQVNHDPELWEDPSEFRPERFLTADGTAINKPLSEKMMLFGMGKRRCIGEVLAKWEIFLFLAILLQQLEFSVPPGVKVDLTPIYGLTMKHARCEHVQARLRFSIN
# protocol: p450-cyp1a2 (AID 410)
# details: recombinant CYP1A2, luciferin-ME demethylation, luminescence; series mostly up to 57 µM
Inconclusive results are not listed. Active and inactive are the calls of the source. Calls come from the whole dose curve.
Classes used: active, inactive

>>> classname("N#Cc1cccc(-c2nc3cnc(Nc4ccccc4)nc3n(C[C@H]3CCCO3)c2=O)c1")
"active"
>>> classname("COc1ccc(-n2c(=O)c(C)nc3cnc(N4CCOCC4)nc32)cc1")
"active"
>>> classname("CN(Cc1ccco1)c1ccnc(-c2cccc(NS(C)(=O)=O)c2)n1")
"active"
>>> classname("O=c1c(-c2ccc(F)cc2)nc2cnc(N3CCOCC3)nc2n1Cc1ccc(F)cc1")
"active"
>>> classname("Cc1cnc(CNc2ncnc3ccc(-c4cccc(C#N)c4)cc23)cn1")
"active"
>>> classname("COC(=O)N1CCC2(CCCN(C(=O)Nc3ccc(OC)cc3)C2)CC1")
"active"
>>> classname("N#Cc1cccc(NC(=O)N2CC[C@@]3(CCCN(C(=O)c4cc(C(F)(F)F)cc(C(F)(F)F)c4)C3)C2)c1")
"inactive"
>>> classname("COc1ccccc1-c1nc(NCc2cccs2)c2ccccc2n1")
"active"
>>> classname("O=C(c1cccc(F)c1)N1CCC2(CCCN(Cc3ccccc3)C2)CC1")
"inactive"
>>> classname("O=c1cnc2cnc(Nc3ccccc3)nc2n1C[C@H]1CCCO1")
"active"
>>> classname("COC(=O)N1CCC[C@@]2(CCN(c3ncccn3)C2)C1")
"inactive"
>>> classname("COc1ccc(-n2c(=O)c(-c3ccccc3)nc3cnc(N4CCOCC4)nc32)cc1")
"active"
>>> classname("CC(=O)NCCNc1nc(-c2c(C)noc2C)nc2ccccc12")
"active"
>>> classname("N#Cc1cccc(-c2nc(Nc3ccncc3)c3ccccc3n2)c1")
"active"
>>> classname("O=C(c1cnccn1)N1CCC2(CC1)CN(C(c1ccccc1)c1ccccc1)C2")
"active"
>>> classname("COCCn1c(=O)c(-c2ccccc2)nc2cnc(Nc3cccc(OC)c3)nc21")
"active"
>>> classname("Cn1cc(-c2nc3cncnc3n(Cc3ccccc3Cl)c2=O)c2ccccc21")
"active"
>>> classname("CN(C)C(=O)c1ccc(-c2ccc3ncnc(NCc4cccs4)c3c2)cc1")
"active"
>>> classname("O=S(=O)(c1ccccc1)N1CCC[C@@]2(CCN(c3cccc(-c4ccccc4)c3)C2)C1")
"active"
>>> classname("c1ccc(CNc2ncncc2-c2cccnc2)cc1")
"active"
>>> classname("Cc1noc(C)c1-c1nccc(NCCN2CCOCC2)n1")
"active"
>>> classname("COc1ccc(C(=O)N2CCC3(CCN(Cc4ccncc4)CC3)CC2)cc1")
"inactive"
>>> classname("COCCn1c(=O)c(-c2ccccc2)nc2cnc(N(C)C)nc21")
"active"
>>> classname("Cc1noc(C)c1-c1nccc(NC2CC2)n1")
"active"
>>> classname("Cn1c(=O)c(-c2ccc(F)cc2)nc2cnc(Oc3ccccc3)nc21")
"active"
>>> classname("N[C@H](C(=O)N[C@@H]1C(=O)N2C(C(=O)O)=C(Cl)CS[C@@H]12)c1ccccc1")
"inactive"
>>> classname("Cc1noc(C)c1-c1nccc(N2CCN(C)CC2)n1")
"active"
>>> classname("O=c1c(-c2ccccc2)nc2cnc(N3CCOCC3)nc2n1Cc1ccc(F)cc1")
"active"
>>> classname("COc1ccc(-n2c(=O)c(CCc3ccccc3)nc3cnc(N4CCN(C)CC4)nc32)cc1")
"inactive"
>>> classname("COc1cccc(Cn2c(=O)c(-c3cccs3)nc3cncnc32)c1")
"active"
>>> classname("CN(C)CC[C@H](c1ccc(Br)cc1)c1ccccn1")
"inactive"
>>> classname("Cc1cccc(CNc2cc(-c3ccc(C(=O)N(C)C)cc3)ncn2)c1")
"active"
>>> classname("CN(C)c1ccc(-c2nc(-n3ccnc3)c3ccccc3n2)cc1")
"active"
>>> classname("CN(C)c1ccc(-c2nc(NCCc3cnc[nH]3)c3ccccc3n2)cc1")
"active"
>>> classname("COc1ccc(C(=O)N2CCC3(CCCN(Cc4ccccc4OC)C3)CC2)cc1")
"inactive"
>>> classname("CN(C)C(=O)c1ccc(-c2nccc(-n3ccnc3)n2)cc1")
"active"
>>> classname("CCNc1ncc2nc(-c3cc(F)cc(F)c3)c(=O)n(CCOC)c2n1")
"active"
>>> classname("O=C(c1cc(C(F)(F)F)cc(C(F)(F)F)c1)N1CCC[C@@]2(CCN(c3ccccc3)C2)C1")
"inactive"
>>> classname("O=C(c1cccc(F)c1)N1CCC2(CC1)CN(c1ccc(-c3ccccc3)cc1)C2")
"inactive"
>>> classname("COCC(=O)N1CCC[C@@]2(CCN(C(c3ccccc3)c3ccccc3)C2)C1")
"active"
>>> classname("COc1ccc(-c2nc3cnc(OC)nc3n(-c3ccc(OC)cc3)c2=O)cc1")
"active"
>>> classname("c1ccc(C(c2ccccc2)N2CC3(CCNCC3)C2)cc1")
"active"
>>> classname("Cc1noc(C)c1C(=O)N1CCC2(CCCN(Cc3ccc(C#N)cc3)C2)CC1")
"inactive"

---

# testTarget: Ubiquitin carboxyl-terminal hydrolase 1 (Homo sapiens)
# protocol: Inhibitors of USP1/UAF1: Pilot qHTS (AID 504865); note: nearly all actives have a fitted effect of over 35% in size
# details: purified USP1/UAF1, Ub-rhodamine cleavage fluorescence; series mostly up to 54.9 µM
Results filed as inconclusive are left out. The source made the active and inactive calls. The call rests on the fitted dose curve; in most records, active means well fitted inhibition curve with a large enough effect; inconclusive means small, poorly fitted or top-dose-only effect; inactive means flat fitted curve, though single readings scatter.
Outcome codes: Yes = active, No = inactive

>>> classname("COc1ccc(CNc2ccnc(-c3cccc(C#N)c3)n2)c(OC)c1")
"No"
>>> classname("CN(C)C(=O)c1ccc(-c2ccc3ncnc(NCc4cccs4)c3c2)cc1")
"No"
>>> classname("c1ccc(Nc2nc(-c3ccc4c(c3)OCO4)nc3ccccc23)cc1")
"No"
>>> classname("Cn1c(=O)c(CCc2ccccc2)nc2cnc(Nc3ccccc3)nc21")
"No"
>>> classname("COc1ccccc1CNc1ncncc1-c1ccc(C(=O)N(C)C)cc1")
"No"
>>> classname("CN1CCN(c2ncc3nc(-c4cc(F)cc(F)c4)c(=O)n(CCC#N)c3n2)CC1")
"No"
>>> classname("COc1ccc2[nH]cc(CCNc3ccnc(-c4ccoc4)n3)c2c1")
"No"
>>> classname("CC(=O)Nc1c(I)c(C(=O)N[C@H]2[C@@H](O)[C@H](O)[C@H](CO)O[C@@H]2O)c(I)c(N(C)C(C)=O)c1I")
"No"
>>> classname("COc1ccc(-c2nc3cnc(OC)nc3n(-c3ccccc3)c2=O)cc1")
"No"
>>> classname("Cn1c(=O)c(-c2ccccc2)nc2cnc(Nc3ccccc3)nc21")
"No"
>>> classname("c1nc(N2CCOCC2)c2cc(-c3ccoc3)ccc2n1")
"No"
>>> classname("COCCn1c(=O)c(-c2ccccc2)nc2cnc(N3CCN(C)CC3)nc21")
"No"
>>> classname("COc1cccc(Cn2c(=O)c(-c3cccs3)nc3cncnc32)c1")
"No"
>>> classname("CC(=O)NCCNc1ccnc(-c2ccccc2C)n1")
"No"
>>> classname("COCCn1c(=O)c(C)nc2cnc(OC)nc21")
"No"
>>> classname("Cc1cnc(CNc2cc(-c3cccnc3)ncn2)cn1")
"No"
>>> classname("c1cncc(-c2nccc(NCc3cccs3)n2)c1")
"No"
>>> classname("CCNc1ncc2nc(C)c(=O)n(CCOC)c2n1")
"No"
>>> classname("CN1CCN(c2ncncc2-c2ccoc2)CC1")
"No"
>>> classname("CN(C)c1ncnc2ccc(-c3ccc4c(c3)OCO4)cc12")
"No"
>>> classname("COc1ccc(-n2c(=O)c(CCc3ccccc3)nc3cnc(N4CCOCC4)nc32)cc1")
"No"
>>> classname("COc1ccccc1-c1cncnc1NCc1cccs1")
"No"
>>> classname("CS(=O)(=O)Nc1cccc(-c2ccc3ncnc(NCc4cccs4)c3c2)c1")
"No"
>>> classname("COc1ccccc1OC[C@H](O)COC(N)=O")
"No"
>>> classname("CN1CCN(c2ncc3ncc(=O)n(Cc4ccc(F)cc4)c3n2)CC1")
"No"
>>> classname("CN1[C@@H](CC(=O)c2ccccc2)CCC[C@@H]1C[C@@H](O)c1ccccc1")
"No"
>>> classname("COCCn1c(=O)c(-c2cccc(C#N)c2)nc2cnc(Nc3ccccc3)nc21")
"No"
>>> classname("COc1ccc(C(=O)O)c(O)c1OC")
"No"
>>> classname("N#CCCn1c(=O)c(-c2ccc(F)cc2)nc2cnc(N3CCNCC3)nc21")
"No"
>>> classname("O=c1c(-c2cc(F)cc(F)c2)nc2cnc(N3CCOCC3)nc2n1Cc1ccc(F)cc1")
"No"
>>> classname("CN(C)C(=O)c1ccc(-c2cncnc2Nc2ccccc2)cc1")
"No"
>>> classname("COc1ccc(-c2nc3cncnc3n(-c3ccccc3)c2=O)cc1")
"No"
>>> classname("C[C@@H](C[N+](C)(C)C)OC(N)=O")
"No"
>>> classname("Cn1c(=O)c(-c2ccc(F)cc2)nc2cnc(Nc3ccccc3)nc21")
"No"
>>> classname("Cc1ccccc1-c1nc(N2CCOCC2)c2ccccc2n1")
"Yes"
>>> classname("CN(C)c1ncc2nc(-c3cc(F)cc(F)c3)c(=O)n(CCc3ccccc3)c2n1")
"No"
>>> classname("COC(=O)C1=CO[C@@H](C)[C@H]2CN3CCc4c([nH]c5ccccc45)[C@@H]3C[C@H]12")
"No"
>>> classname("COc1ccc2[nH]cc(CCNc3ncncc3-c3cccnc3)c2c1")
"No"
>>> classname("CC(=O)N(CC(O)CN(C(C)=O)c1c(I)c(C(=O)NC[C@@H](O)CO)c(I)c(C(=O)NC[C@@H](O)CO)c1I)c1c(I)c(C(=O)NC[C@@H](O)CO)c(I)c(C(=O)NC[C@@H](O)CO)c1I")
"No"
>>> classname("COc1ccc2[nH]cc(CCNc3nc(-c4ccc(N(C)C)cc4)nc4ccccc34)c2c1")
"No"
>>> classname("COc1ccccc1CNc1nc(-c2ccc3c(c2)OCO3)nc2ccccc12")
"No"
>>> classname("c1cncc(-c2nc(NCc3cccs3)c3ccccc3n2)c1")
"No"
>>> classname("CN(Cc1ccco1)c1ncncc1-c1cccc(NS(C)(=O)=O)c1")
"No"
>>> classname("c1ccc2c(Nc3ccncc3)nc(-c3ccoc3)nc2c1")
"Yes"
